- Tested on: PXR homodimer (NR concentration 270 nM)
- Assay Notes: PBM binding z-score (relative to random genomic background probes); higher = stronger binding; sequences stand for … in GC…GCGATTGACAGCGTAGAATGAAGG
As shown below, each of these sequences has a reported PBM binding z-score value.

Recorded results for 4 sequences are shown here.
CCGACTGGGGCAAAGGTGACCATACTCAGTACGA	-0.655
ATCACTAGGTAACAAGTTCAGTGAAAGAGAGGAC	2.35
CCTACTGGGCCATCAGGTCATTCATATCAACGTT	1.07
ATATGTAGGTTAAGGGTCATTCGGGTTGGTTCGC	3.75

For TCATATAGGTAAAAGGTAAAAGTCGGTGTGGTAA , what is its reported PBM binding z-score?
0.507

For TCTATTAGTTGAAGGGCAAGCGACGAGTCCGTTT , what is its reported PBM binding z-score?
0.859

For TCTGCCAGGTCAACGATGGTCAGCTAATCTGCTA , what is its reported PBM binding z-score?
-0.453

For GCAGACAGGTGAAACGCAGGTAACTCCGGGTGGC , what is its reported PBM binding z-score?
-0.692

For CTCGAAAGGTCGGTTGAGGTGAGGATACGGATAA , what is its reported PBM binding z-score?
0.154

For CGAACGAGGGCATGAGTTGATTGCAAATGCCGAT , what is its reported PBM binding z-score?
0.4

For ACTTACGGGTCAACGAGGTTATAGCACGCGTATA , what is its reported PBM binding z-score?
3.34

For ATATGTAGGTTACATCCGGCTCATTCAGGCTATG , what is its reported PBM binding z-score?
0.0469
